Test: Acute toxicity in mice i.v.
Conditions: mouse, in vivo, iv

compound: CC(C)NCC(O)COc1ccc2c(c1)OCCC2 (stereo not shown)
LD50, mg/kg: 66

Value source: patent US4391821A
